meta.source: ChEMBL document CHEMBL3886179

measurement-target: cAMP and cAMP-inhibited cGMP 3',5'-cyclic phosphodiesterase 10A (Homo sapiens)
Sequence (Q9Y233 whole entry): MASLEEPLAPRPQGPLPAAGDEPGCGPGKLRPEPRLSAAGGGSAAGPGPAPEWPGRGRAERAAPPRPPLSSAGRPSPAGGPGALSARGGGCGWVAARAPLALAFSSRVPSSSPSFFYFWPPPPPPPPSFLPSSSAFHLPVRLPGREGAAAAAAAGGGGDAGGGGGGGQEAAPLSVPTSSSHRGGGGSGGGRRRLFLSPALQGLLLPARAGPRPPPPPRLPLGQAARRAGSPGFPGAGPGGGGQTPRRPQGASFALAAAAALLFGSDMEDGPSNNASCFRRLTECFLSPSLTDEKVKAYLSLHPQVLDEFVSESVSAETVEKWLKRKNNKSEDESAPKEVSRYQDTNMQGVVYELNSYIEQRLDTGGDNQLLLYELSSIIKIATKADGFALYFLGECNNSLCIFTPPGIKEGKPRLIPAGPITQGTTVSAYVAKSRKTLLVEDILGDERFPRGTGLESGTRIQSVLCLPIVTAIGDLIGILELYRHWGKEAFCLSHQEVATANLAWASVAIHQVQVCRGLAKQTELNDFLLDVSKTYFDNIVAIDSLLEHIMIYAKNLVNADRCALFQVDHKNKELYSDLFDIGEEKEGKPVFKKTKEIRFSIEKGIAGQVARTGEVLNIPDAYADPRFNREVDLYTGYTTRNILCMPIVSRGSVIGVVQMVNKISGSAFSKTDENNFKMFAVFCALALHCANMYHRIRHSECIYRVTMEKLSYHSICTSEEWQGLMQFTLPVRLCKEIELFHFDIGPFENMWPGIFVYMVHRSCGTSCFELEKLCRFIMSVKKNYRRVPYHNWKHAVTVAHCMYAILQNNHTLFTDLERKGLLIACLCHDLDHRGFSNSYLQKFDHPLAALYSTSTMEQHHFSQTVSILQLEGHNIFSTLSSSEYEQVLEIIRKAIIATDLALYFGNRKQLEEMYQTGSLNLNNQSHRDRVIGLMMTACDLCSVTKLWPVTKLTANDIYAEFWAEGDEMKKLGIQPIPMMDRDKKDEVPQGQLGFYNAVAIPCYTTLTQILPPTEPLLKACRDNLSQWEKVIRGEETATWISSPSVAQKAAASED
protocol-notes: Diaxonhit Phosphodiesterase Assay: The phosphodiesterase assay was developed using the LANCE cAMP kit (PerkinElmer). The assay buffer contained HBSS with 5 mM HEPES, 0.1% BSA, and 1.5 mM MgCl2, pH 7.4. PDE10A (BPS Bioscience) was used at 200 pg/well (with a specific activity of 3200 pmole/min/ug with assay conditions: 10 mM Tris-HCl, pH 7.4, 10 mM MgCl2, 1 mM MnCl2, 200 uM cAMP, 2.5 kU 5' nucleotidase, 37° C., 20 min) and PDE4D3 (BPS Bioscience) was used at 100 pg/well (with a specific activity of 32713 pmole/min/ug with assay conditions: 10 mM Tris-HCl, pH 7.4, 10 mM MgCl2, 1 mM MnCl2, 200 uM cAMP, 2.5 kU 5' nucleotidase, 37° C., 20 min). The Biotin-cAMP tracer, supplied in 10 mmol/L Tris-HCl buffered (pH 8.0) salt solution with 1 mmol/L ethylenediaminetetraacetic acid (EDTA), 0.1% bovine serum albumin (BSA), and 0.05% sodium azide, is used at a dilution of 1/375. The assay detection mixture contained the LANCE Eu-W8044 labeled streptavidin 1/2250 (supplied in 50 mmol/L Tris-HCl buffer).
assay-metric: IC50 (nM)

Solved cases (5 shown):
CCc1ncc(Cc2ccc3cccc(NC(N)=O)c3n2)c2cc(OC)c(OC)cc12: 58
COc1cc2cncc(Cc3ccc4oc5ccccc5c4c3)c2cc1OC: 7.6
CCCc1ncc(Cc2cc3ccccc3nc2O)c2cc(OC)c(OC)cc12: 36
COc1cc2cncc(Cc3ccc4c(c3)Cc3ccccc3-4)c2cc1OC: 110
COc1cc2cncc(Cc3ccc4oc(-c5ccc(C#N)cc5)nc4c3)c2cc1OC: 148

a. COc1cc2cncc(Cc3ccc4oc(-c5ccc(N)cc5)nc4c3)c2cc1OC
b. COc1ccc2cc(Cc3cncc4cc(OC)c(OC)cc34)cnc2c1
Data request: Compare a and b and name the one whose reported IC50 is smaller. # reply format: chosen label
Data returned: b

###

measurement-target: cAMP and cAMP-inhibited cGMP 3',5'-cyclic phosphodiesterase 10A (Homo sapiens)
protocol-notes: Diaxonhit Phosphodiesterase Assay: The phosphodiesterase assay was developed using the LANCE cAMP kit (PerkinElmer). The assay buffer contained HBSS with 5 mM HEPES, 0.1% BSA, and 1.5 mM MgCl2, pH 7.4. PDE10A (BPS Bioscience) was used at 200 pg/well (with a specific activity of 3200 pmole/min/ug with assay conditions: 10 mM Tris-HCl, pH 7.4, 10 mM MgCl2, 1 mM MnCl2, 200 uM cAMP, 2.5 kU 5' nucleotidase, 37° C., 20 min) and PDE4D3 (BPS Bioscience) was used at 100 pg/well (with a specific activity of 32713 pmole/min/ug with assay conditions: 10 mM Tris-HCl, pH 7.4, 10 mM MgCl2, 1 mM MnCl2, 200 uM cAMP, 2.5 kU 5' nucleotidase, 37° C., 20 min). The Biotin-cAMP tracer, supplied in 10 mmol/L Tris-HCl buffered (pH 8.0) salt solution with 1 mmol/L ethylenediaminetetraacetic acid (EDTA), 0.1% bovine serum albumin (BSA), and 0.05% sodium azide, is used at a dilution of 1/375. The assay detection mixture contained the LANCE Eu-W8044 labeled streptavidin 1/2250 (supplied in 50 mmol/L Tris-HCl buffer).
pIC50: −log10 of the molar value.
assay-metric: pIC50

Below: 5 molecules and their reported pIC50.
CCc1ncc(Cc2cnc3ccc(NS(C)(=O)=O)cc3c2)c2cc(OC)c(OC)cc12: 7.80
CCc1ncc(Cc2ccc3cccc(OCCO)c3n2)c2cc(OC)c(OC)cc12: 6.72
c1ccc2c(c1)oc1ccc(Cc3cncc4cc5c(cc34)OCCO5)cc12: 5.12
CCc1ncc(Cc2ccc3cccc(C(N)=O)c3n2)c2cc(OC)c(OC)cc12: 7.11
CCCc1ncc(Cc2ccc3cccc(O)c3n2)c2cc(OC)c(OC)cc12: 7.70

I. CCCc1ncc(Cc2cc3cc(OC)ccc3nc2NCC)c2cc(OC)c(OC)cc12
II. CCCc1ncc(Cc2ccc3cccc(OCc4nnn[nH]4)c3n2)c2cc(OC)c(OC)cc12
Data request: Looking only at measured pIC50, which entry is lower, I or II ? When you have decided, please share the label of that item.
Data returned: I
(I: 8.01, II: 8.33)

A. CCc1ncc(Cc2ccc3cccc(OC(C)=O)c3n2)c2cc(OC)c(OC)cc12
B. CCOc1cc2cncc(Cc3cnc4ccccc4c3)c2cc1OCC
Data request: Would you let me know which has the greater pIC50 value, A or B ? Please indicate the selected item by its label.
Data returned: B

1. COc1cc2c(Cc3ccc4cccc(O)c4n3)cnc(C)c2cc1OC
2. COc1cc2cncc(Cc3ccc4cccc(OCc5ccncc5)c4n3)c2cc1OC
3. CCCc1ncc(Cc2ccc3c(c2)oc(=O)n3C)c2cc(OC)c(OC)cc12
4. COc1cc2cncc(Cc3cnc4ccccc4c3)c2cc1OC
Data request: Order the records by pIC50, with each subsequent value no larger than the one before. List each label, following the requested order.
Data returned: 3, 4, 1, 2

1. CCc1ncc(Cc2ccc3cccc(NS(C)(=O)=O)c3n2)c2cc(OC)c(OC)cc12
2. CCCc1ncc(Cc2ccc3cccc(NC(=O)CO)c3n2)c2cc(OC)c(OC)cc12
3. CCCCc1ncc(Cc2cnc3cc(C)ccc3c2)c2cc(OC)c(OC)cc12
4. COc1cc2c(Cc3ccc4cccc(OCC(N)=O)c4n3)cnc(C)c2cc1OC
5. COc1cc2cncc(Cc3ccc4c(c3)CCN4C)c2cc1OC
Data request: Put the items in sequence by pIC50, from largest down. Provide the labels, sequenced as the question asks.
Data returned: 1, 2, 4, 5, 3
